testDetails: Human HepG2 cell viability assay in 384 well format
Type: toxicity, cell-based
Design: dose 125 nL, time 70.5 hour; concentration not given beside the values
experimentalContext: HepG2 cells, read-out: Inhibition
reportedMetric: cytotoxicity at 70.5 h (%)
Your answer should be a plain number; it is taken to be in %.

Query block: Fill blank: measured cytotoxicity at 70.5 h of the compound CC(=O)NCC(=O)N1CCOCC(Cc2ccc3c(ccn3C)c2)C1 (stereo unspecified) is ____.
Result block: -8.14

Query block: Fill blank: measured cytotoxicity at 70.5 h of the compound Cn1nc2c(cc1=O)CN(Cc1nc(N)c3ccccc3n1)CC2 is ____.
Result block: 7.46

Query block: Fill blank: measured cytotoxicity at 70.5 h of the compound Cc1nc(CN2CCN(C(C)c3nc(C(C)C)no3)CC2)oc1C (stereo unspecified) is ____.
Result block: -0.487

Query block: Fill blank: measured cytotoxicity at 70.5 h of the compound CCOc1ccc(N(CCC#N)C(=O)c2ccnc(SC)c2)cc1 is ____.
Result block: 9.66

Query block: Fill blank: measured cytotoxicity at 70.5 h of the compound COc1cc2cc(C(=O)O)n(C)c2c(OC)c1OC is ____.
Result block: -10.1

Query block: Fill blank: measured cytotoxicity at 70.5 h of the compound CCc1noc(C(C)N(C)CC(=O)Nc2cccc(C)n2)n1 (stereo unspecified) is ____.
Result block: -6.94

From: ChEMBL document CHEMBL3507680
